Data provenance: paper PMC3188443

Biological target: His-tagged murine Stat3 protein (murine) (UniProt P42227)
Sequence (P42227 whole entry): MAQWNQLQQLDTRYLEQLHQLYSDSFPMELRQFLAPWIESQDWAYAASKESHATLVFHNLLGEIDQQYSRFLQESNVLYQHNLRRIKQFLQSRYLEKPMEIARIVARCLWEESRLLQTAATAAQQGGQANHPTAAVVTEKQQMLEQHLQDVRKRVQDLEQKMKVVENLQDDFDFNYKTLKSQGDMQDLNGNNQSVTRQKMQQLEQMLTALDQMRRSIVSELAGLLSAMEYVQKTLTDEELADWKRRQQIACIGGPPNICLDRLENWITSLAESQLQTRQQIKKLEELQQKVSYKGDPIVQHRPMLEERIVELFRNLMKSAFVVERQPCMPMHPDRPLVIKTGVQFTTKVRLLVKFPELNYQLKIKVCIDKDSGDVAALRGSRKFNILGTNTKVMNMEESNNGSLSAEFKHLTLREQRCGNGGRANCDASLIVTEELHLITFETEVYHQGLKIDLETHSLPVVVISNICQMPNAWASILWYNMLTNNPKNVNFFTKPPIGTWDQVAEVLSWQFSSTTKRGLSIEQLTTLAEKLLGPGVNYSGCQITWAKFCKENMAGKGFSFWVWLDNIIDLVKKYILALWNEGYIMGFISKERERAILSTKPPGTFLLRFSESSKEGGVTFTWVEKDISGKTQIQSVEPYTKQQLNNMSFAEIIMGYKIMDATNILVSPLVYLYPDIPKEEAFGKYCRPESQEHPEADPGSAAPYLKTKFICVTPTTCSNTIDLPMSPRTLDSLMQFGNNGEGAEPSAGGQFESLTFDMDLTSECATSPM
Assay: SPR
ASSAY_READOUT: Kd (nM)

INSERT INTO assay_data (substance, target_or_test_system, assay_readout, numeric_value) VALUES
  ('GpYLPQTV-NH2, high affinity Stat3-binding phosphoTyr peptide derived from the IL-6R subunit gp-130', 'His-tagged murine Stat3 protein (murine) (UniProt P42227)', 'Kd', 24);

---

Molecular target: His-tagged murine Stat3 protein (murine) (UniProt P42227)
Test: fluorescence polarisation
ASSAY_READOUT: IC50 (nM)

INSERT INTO assay_data (substance, numeric_value) VALUES
  ('GpYLPQTV-NH2, high affinity Stat3-binding phosphoTyr peptide derived from the IL-6R subunit gp-130', 300);
